Test system: MDR1-MDCK cell monolayers
EXPERIMENTAL_CONTEXT: dog, MDCK-MDR1, 120 min, 5 μM, pH 7.4
Please respond with reported MDCK-MDR1: % Recov A-B (%) for every item in the list.
Your answer should be a plain number; it is taken to be in %.

Respond only with MDCK-MDR1: % Recov A-B (%) recorded for CN(c1cnc(-c2ccc(-c3cn[nH]c3)cc2O)cn1)[C@@H]1C[C@H]2CCC(N2)[C@@H]1F (single isomer, unassigned)
72

Look up and state reported MDCK-MDR1: % Recov A-B (%) for CN(c1cnc(-c2cc3ccc(OCF)nc3cc2O)cn1)[C@@H]1CC2CC[C@H](N2)[C@@H]1F (single isomer, unassigned)
24

Specify reported MDCK-MDR1: % Recov A-B (%) for the compound shown: Cn1cc(-c2ccc(-c3cnc(N(C4CC4)[C@@H]4CC5CC[C@H](N5)[C@@H]4F)cn3)c(O)c2)cn1 (single isomer, unassigned) [Compound 49E2]
48

Item CN(c1cnc(-c2cc(F)c(C3=CC(F)NC(F)=C3)cc2O)cn1)[C@H]1C[C@]2(C)CC[C@@](C)(N2)[C@H]1F (single isomer, unassigned) : provide MDCK-MDR1: % Recov A-B (%)
19

Consider the compound COc1cc(-c2cc(O)c(-c3cnc(N(C)[C@@H]4CC5N[C@H](C4)CC5(F)F)cn3)cc2F)cnn1 (single isomer, unassigned) and give its recorded MDCK-MDR1: % Recov A-B (%).
60

Tell us which MDCK-MDR1: % Recov A-B (%) value is on record for O=c1cc(-c2ccc(-c3cnc(N(C4CC4)[C@H]4C[C@@H]5CCC(N5)[C@H]4F)cn3)c(O)c2)ccn1CF (single isomer, unassigned)
63

###

Test system: MDR1 (P-gp)
EXPERIMENT_DESCRIPTION: MDCK-MDR1 permeability assay, blood-brain-barrier penetration potential
EXPERIMENTAL_CONTEXT: dog, MDCK-MDR1, pH 7.4, MDCK-MDR1 Efflux Ratio
Please provide measured efflux ratio at 120 min, 5 μM for the entries that follow.
Returns: the value as a bare number; no unit string appended.

Find efflux ratio at 120 min, 5 μM for CN(c1cnc(-c2ccc(-c3cnn(C)c3)cc2O)cn1)[C@H]1CC2CC[C@@H](N2)[C@H]1F (single isomer, unassigned) on MDR1 (P-gp) and write it down.
3

Specify efflux ratio at 120 min, 5 μM for Cc1nc(-c2ccc(-c3cnc(N(C)[C@H]4C[C@@H]5CCC(N5)[C@H]4F)cn3)c(O)c2)no1 (single isomer, unassigned) , system MDR1 (P-gp).
2

Check MDR1 (P-gp) data and give efflux ratio at 120 min, 5 μM for CN(c1cnc(-c2ccc(-c3cc[nH]c(=O)c3)cc2O)cn1)[C@@H]1CC2COC[C@H](N2)[C@@H]1F (single isomer, unassigned) .
77

Give reported efflux ratio at 120 min, 5 μM for CN(c1cnc(-c2ccc(-c3cn[nH]c3)cc2O)cn1)[C@H]1C[C@@H]2COCC(N2)[C@H]1F (single isomer, unassigned) (MDR1 (P-gp))
8

Enter recorded efflux ratio at 120 min, 5 μM with MDR1 (P-gp) for COc1cc(-c2cc(O)c(-c3cnc(N(C)[C@@H]4C[C@@]5(C)CC[C@](C)(N5)[C@@H]4F)cn3)cc2F)cnn1 (single isomer, unassigned) here.
13

Please report efflux ratio at 120 min, 5 μM with MDR1 (P-gp) for item CN(c1cnc(-c2ccc(-c3cn[nH]c3)cc2O)cn1)[C@@H]1C[C@@]2(C)CC[C@H](N2)[C@@H]1F .
11

###

System: MDR1-MDCK cell monolayers
EXPERIMENTAL_CONTEXT: dog, MDCK-MDR1, 120 min, 5 μM, pH 7.4
MEASUREMENT_NAME: MDCK-MDR1: % Recov A-B (%)
Kindly provide the numeric value in % only, without the unit symbol.

Determine its reported MDCK-MDR1: % Recov A-B (%): CN(c1cnc(-c2ccc(C3=CCOC3)cc2O)cn1)[C@H]1C[C@@H]2CCC(N2)[C@H]1F (single isomer, unassigned) [Compound 84E2]
28

// fetch MDCK-MDR1: % Recov A-B (%) given entry CN(c1cnc(-c2ccc(-c3cc[nH]c(=O)c3)cc2O)cn1)[C@@H]1CC2COC[C@H](N2)[C@@H]1F (single isomer, unassigned) [Compound 82E1]
83

State its MDCK-MDR1: % Recov A-B (%): COc1cc(-c2cc(O)c(-c3cnc(N(C4CC4)[C@H]4C[C@@H]5CCC(N5)[C@H]4F)cn3)cc2F)cc(F)n1 (single isomer, unassigned) [Compound 37E2]
19

###

Tested on: MDR1-MDCK cell monolayers
EXPERIMENTAL_CONTEXT: dog, MDCK-MDR1, 120 min, 5 μM, pH 7.4
Lab note: anything with MDCK-MDR1: % Recov B-A (%) below 80% is marked yes; values at 80% or higher are marked no.

Could you please tell me whether MDCK-MDR1: % Recov B-A (%) recorded for CN(c1cnc(-c2ccc(-c3cc[nH]c(=O)c3)cc2O)cn1)[C@H]1C[C@@H]2CC[C@@H](N2)[C@H]1F [Compound 76E2] is less than 80%?
yes

Dear colleague, could you confirm whether MDCK-MDR1: % Recov B-A (%) of CN(c1cnc(-c2ccc(-c3cc[nH]c(=O)c3)cc2O)cn1)[C@H]1C[C@@H]2COCC(N2)[C@H]1F (single isomer, unassigned) [Compound 82E2] falls below 80%? Thanks.
yes

Given the entry CN(c1cnc(-c2ccc(C3=CCOC3)cc2O)cn1)[C@H]1C[C@@H]2CCC(N2)[C@H]1F (single isomer, unassigned) [Compound 84E2] , would its reported MDCK-MDR1: % Recov B-A (%) be below 80%?
yes

Given CN(c1cnc(-c2ccc(-c3nnco3)cc2O)cn1)[C@@H]1CC2CC[C@H](N2)[C@@H]1F (single isomer, unassigned) [Compound 80E1] , is recorded MDCK-MDR1: % Recov B-A (%) strictly lower than 80%?
yes

# check: MDCK-MDR1: % Recov B-A (%) < 80% for COc1cc(-c2cc(O)c(-c3cnc(N(C)[C@@H]4CC5CC[C@H](N5)[C@@H]4F)cn3)cc2F)cc(F)n1 (single isomer, unassigned) [Compound 31E1]
yes

Could you please tell me whether MDCK-MDR1: % Recov B-A (%) recorded for CN(c1cnc(-c2cc(F)c(-c3cnn(CF)c3)cc2O)cn1)[C@H]1C[C@@H]2CCC(N2)[C@H]1F (single isomer, unassigned) [Compound 29E2] is less than 80%?
yes

For this molecule, is MDCK-MDR1: % Recov B-A (%) lower than 80%? CN(c1cnc(-c2cc(F)c(-c3cn[nH]c3)cc2O)cn1)[C@@H]1C[C@@]2(C)CC[C@](C)(N2)[C@@H]1F [Compound 57E1]
yes

For this molecule, is MDCK-MDR1: % Recov B-A (%) lower than 80%? CNC(=O)/C=C/c1cc(O)c(-c2cnc(N(C3CC3)[C@@H]3C[C@@]4(C)CC[C@](C)(N4)[C@@H]3F)cn2)cc1F [Compound 79E1]
no

MDCK-MDR1: % Recov B-A (%) strictly < 80% for this molecule? COc1cc(-c2ccc(-c3cnc(N(C)[C@@H]4CC5N[C@H](C4)CC5(F)F)cn3)c(O)c2)cnn1 (single isomer, unassigned) [Compound 68E1]
no

Is the reported MDCK-MDR1: % Recov B-A (%) for C[C@@]12CC[C@@](C)(N1)[C@@H](F)[C@@H](Oc1cnc(-c3ccc(-c4cn[nH]c4)cc3O)cn1)C2 [Compound 2E1] strictly below 80%?
no

###

Test system: MDR1
EXPERIMENT_DESCRIPTION: in vitro
EXPERIMENTAL_CONTEXT: dog, MDCK-MDR1, pH 7.4, MDCK-MDR1: Papp B-A (10^−6, cm/s)
Can you tell me Papp B→A at 120 min, 5 μM for the items I'm about to list?
The figure you give is taken to be in ×10⁻⁶ cm/s; do not add the unit.

Name the recorded Papp B→A at 120 min, 5 μM of the compound listed here: CN(c1cnc(-c2ccc(-c3cn[nH]c3)cc2O)cn1)[C@@H]1C[C@H]2CCCC(N2)[C@@H]1F (single isomer, unassigned)
42.3

Tell me Papp B→A at 120 min, 5 μM reported for Cc1nc(-c2ccc(-c3cnc(N(C)[C@H]4C[C@@H]5CCC(N5)[C@H]4F)cn3)c(O)c2)no1 (single isomer, unassigned)
20.3

Provide Papp B→A at 120 min, 5 μM value for the following compound: COc1cc(-c2ccc(-c3cnc(N(C)[C@@H]4CC5CC[C@H](N5)[C@@H]4F)cn3)c(O)c2)ncn1 (single isomer, unassigned)
6.9

###

System: MDR1-MDCK cell monolayers
EXPERIMENTAL_CONTEXT: dog, MDCK-MDR1, 120 min, 5 μM, pH 7.4
MEASUREMENT_NAME: MDCK-MDR1: % Recov A-B (%)

Name the recorded MDCK-MDR1: % Recov A-B (%) of the compound listed here: CN(c1cnc(-c2cc3ncn(CC(F)(F)F)c(=O)c3cc2O)cn1)[C@H]1C[C@@H]2CCC[C@@H](N2)[C@H]1F
82%

Please give measured MDCK-MDR1: % Recov A-B (%) of the following entry: Oc1cc(-c2cn[nH]c2)c(F)cc1-c1cnc(N(C2CC2)[C@@H]2CC3CC[C@H](N3)[C@@H]2F)cn1 (single isomer, unassigned)
54%

Using known records, supply MDCK-MDR1: % Recov A-B (%) for CN(C)C(=O)c1cc(O)c(-c2cnc(N(C)[C@H]3C[C@@H]4CCC(N4)[C@H]3F)cn2)cc1F (single isomer, unassigned)
87%

Using known records, supply MDCK-MDR1: % Recov A-B (%) for CN(c1cnc(-c2ccc(-c3cnn(C)c3)cc2O)cn1)[C@H]1CC2CC[C@@H](N2)[C@H]1F (single isomer, unassigned)
53%

# return recorded MDCK-MDR1: % Recov A-B (%) for entry CN(c1cnc(-c2ccc(-c3cn[nH]c3)cc2O)cn1)[C@@H]1C[C@@]2(C)CC[C@H](N2)[C@@H]1F
68%

State its MDCK-MDR1: % Recov A-B (%): CN(c1cnc(-c2ccc(-c3cn[nH]c3)cc2O)cn1)[C@@H]1C[C@H]2CCCC(N2)[C@@H]1F (single isomer, unassigned)
76%

Specify measured MDCK-MDR1: % Recov A-B (%) for CN(c1cnc(-c2ccc(-c3cn[nH]c3)cc2O)cn1)[C@H]1CC2CC(F)(F)[C@H](C1)N2 (single isomer, unassigned) .
71%

Tell me its MDCK-MDR1: % Recov A-B (%) given Cn1ccc(-c2cc(O)c(-c3cnc(N(C4CC4)[C@H]4C[C@@H]5CCC(N5)[C@H]4F)cn3)cc2F)cc1=O (single isomer, unassigned) as the entry.
82%

Recall and state the measured MDCK-MDR1: % Recov A-B (%) for CN(c1cnc(-c2ccc(-c3nnco3)cc2O)cn1)[C@@H]1CC2CC[C@H](N2)[C@@H]1F (single isomer, unassigned) .
63%

Give the reported MDCK-MDR1: % Recov A-B (%) for this compound. CNC(=O)/C=C/c1cc(O)c(-c2cnc(N(C)[C@@H]3C[C@@]4(C)CC[C@](C)(N4)[C@@H]3F)cn2)cc1F
86%

Using known records, supply MDCK-MDR1: % Recov A-B (%) for CNC(=O)c1cc(O)c(-c2cnc(N(C)[C@H]3C[C@@H]4CCC(N4)[C@H]3F)cn2)cc1F (single isomer, unassigned)
85%

Read the entry CN(c1cnc(-c2cc(F)c(-c3cnn(C)c3)cc2O)cn1)[C@H]1C[C@]2(C)CC[C@@](C)(N2)[C@H]1F and write its reported MDCK-MDR1: % Recov A-B (%).
32%
